Numbers sourced from a protein production outcome set (Wang et al. 2014).

- ASSAY: label from the status in PepcDB records
QUANTITY MEASURED: protein production

[[record]]
sequence = "MEEVIWEQYTVTLQKDSKRGFGIAVSGGRDNPHFENGETSIVISDVLPGGPADGLLQENDRVVMVNGTPMEDVLHSFAVQQLRKSGKIAAIVVKRPRKVQVAPL"
quantity_measured = "protein production"
recorded_value = "not failed"

[[record]]
sequence = "MKSLVKVSLAALALAFAVSAYAAEKELIVATDTAFVPFEFKQGDKYVGFDIDLWDAIAKKLDLKYTLKPMDFSGIIPALQTKNVDLALAGITITDERKKAVDFSDGYYNSGLLVMVKADNNDIKSEADLQGKVLAVKSGTGSVDYAKANIKTKDLRQFPNIDNAYLELGTGRADAVLHDTPNILYFIKTAGNGQFKAVGESIKAQQYGVAFPQGSDLREKVNAALKSLKEDGTYAEIYKKWFGVEPK"
quantity_measured = "protein production"
recorded_value = "failed"

[[record]]
sequence = "MADKTGTPHPLTEPGVWIERIGGRVFPPHLPALFLDRDGTINVDTDYPSDPAEIVLRPQMLPAIATANRAGIPVVVVTNQSGIARGYFGWSAFAAVNGRVLELLREEGVFVDMVLACAYHEAGVGPLAIPDHPMRKPNPGMLVEAGKRLALDLQRSLIVGDKLADMQAGKRAGLAQGWLVDGEAAVQPGFAIRPLRDSSELGDLLAAIETLGRDNRS"
quantity_measured = "protein production"
recorded_value = "not failed"

[[record]]
sequence = "MSMSTSTEVIAHHWAFAIFLIVAIGLCCLMLVGGWFLGGRARARSKNVPFESGIDSVGSARLRLSAKFYLVAMFFVIFDVEALYLFAWSTSIRESGWVGFVEAAIFIFVLLAGLVYLVRIGALDWTPARSRRERMNPETNSIANRQR"
quantity_measured = "protein production"
recorded_value = "failed"


Exercise: For the sequence shown here, `MTESDRDQEASMREVVIVKSTPQRGKFNAFAELVGKLVSETRDFPGCLGAYLMLAPERNEQVVMHIWETPDALEAYLTWRADRGDFLEINEYLEVEQDFKTYQLA` , give the reported protein production.
Solution: not failed

---

- ASSAY: label from the status in PepcDB records
QUANTITY MEASURED: protein production

[[record]]
sequence = "MVKVIFFDLDDTLVDTSKLAEIARKNAIENMIRHGLPVDFETAYSELIELIKEYGSNFPYHFDYLLRRLDLPYNPKWISAGVIAYHNTKFAYLREVPGARKVLIRLKELGYELGIITDGNPVKQWEKILRLELDDFFEHVIISDFEGVKKPHPKIFKKALKAFNVKPEEALMVGDRLYSDIYGAKRVGMKTVWFRYGKHSERELEYRKYADYEIDNLESLLEVLARESSSNKKVHPPRQQI"
recorded_value = "not failed"

[[record]]
sequence = "MSLNSEAKSRIACDIDFDRDGRQAGYARAPLSRNNSGWGTVEIPITVVKNGSGPTVLLTGGVHGDEYEGQIAISDLARRLRPEEVQGRVIMLPAVNMPAIQSDTRLSPVDGRDINRCFPGDPRGTFSQMLAHFLDSVILPMADISVDMHTAGHSYDSTPSTNMHYLADPALRARTLAAAEAFGAPHNVVFGGVDEGSTFTSCVERRGIVSLGTELGGWGRVNIEGVRIGKRGILNVLKHMGVIEGTPETAQRGGAAGTRHMMVREADAYVMAPRTGLFEPTHYVGEEVRTGETAGWIHFVEDVDTAPLELLYRRDGIVWFGAGPGRVTRGDAVAVVMEDYNDTWPQEGHHHHHH"
recorded_value = "not failed"


---

- ASSAY: label from the status in PepcDB records
QUANTITY MEASURED: protein production

Example results:
[[record]]
sequence = "MEGPLNLAHQQSRRADRLLAAGKYEEAISCHRKATTYLSEAMKLTESEQAHLSLELQRDSHMKQLLLIQERWKRAKREERLKAH"
recorded_value = "not failed"

[[record]]
sequence = "MIITIARQCGCGGHEVARILANKLGMELFDKKKLLEEANQLGQAEEHSNFFNEVPINSLLYGIAMGFGNTKPMDKSLKLVKAITENKDAIIIGRCANIIYKDSKDVTSVYLFADKEFRIKYLMERDGISEKEAEKYIKEVDEKRTSFHKYCTDTVWGDAKEYQLCLDTGKIGFEKTAELIMNYINAKKES"
recorded_value = "failed"

[[record]]
sequence = "MTGPTTDADAAVPRRVLIAEDEALIRMDLAEMLREEGYEIVGEAGDGQEAVELAELHKPDLVIMDVKMPRRDGIDAASEIASKRIAPIVVLTAFSQRDLVERARDAGAMAYLVKPFSISDLIPAIELAVSRFREITALEGEVATLSERLETRKLVERAKGLLQTKHGMTEPDAFKWIQRAAMDRRTTMKRVAEVVLETLGTPKDT"
recorded_value = "not failed"

[[record]]
sequence = "MKKAGILGLIITIIVLVPVGLGFNWYHSNYGTKTYYTQITTKGERKTGKDDSGKPYVYYHYSQPGYSDNGVKKELTFDSVLPRSLKMHAYLKVGYNDKRQQVINWEKVNQKDIPQAALNRIQKLEHHHHHH"
recorded_value = "not failed"


Exercise: For the sequence shown here, `MKKIAVFADVQNLYYTVRQAYGCHFNYAALWADISKRGEIVHAFAYAIDRGDSKQQQFQQILRNLGFTVRLKPYIQRSDGSAKGEWDVGITIDIMDFAPQVDEVVLASGDGDFDMLLDRVISKHGVEAVAYGVPGLTANSLIRAASRYVPIEGALL` , give the reported protein production.
Solution: not failed

---

- ASSAY: label from the status in PepcDB records
QUANTITY MEASURED: protein production

[[record]]
sequence = "MFTETGLKSGRRTMRFARLLLLPLIVIGTLSGCAVNMADIHGFNVISLEQEKELGTKFAAEIEKQYPVYNDPEAQKYVDRLGRRLLTGAREVSFDYVFKVVKDDSVNAFAIPGGRLYVHTGLLKAAQSETEVAAVMAHEISHAVARHGTRQMTQQYGYSLVLSLVLGQNSNMLAQIAGELFGKAGMMSYSRDYENQADFLGVETMSKAGYNPQGMVSFFQKLDTMGQQNPSALTKFFSSHPLTSERIQRVQAEIAQLPPRTYPPVDNTDLQKIRARIKLEHHHHHH"
quantity_measured = "protein production"
recorded_value = "failed"

[[record]]
sequence = "MIITLFVMVSGNKVKYEGSGKSGLWMSNLEKSDKTSIGPNYFLNLYWQGSKKEEKWTVVERITLYVDGEKYQDDNVDEYDLSEYTGDEMPGGGRMEDHISTFDYMPEDEVIGHDVLVKVEWRTGQKKQTEAIKLHKKPWYKKLEHHHHHH"
quantity_measured = "protein production"
recorded_value = "failed"


---

- ASSAY: label from the status in PepcDB records
QUANTITY MEASURED: protein production

[[record]]
sequence = "MLYLAELLQGKNALITGAGRGIGRAVAIALAKEGVNVGLLARSEENLKAVAKEVEAEGVKAVIATADVSSYEEVTTAIETLKNGLGSIDILINNAGISKFGKFLELDVADWEKIIQVNLMGVYYATRAALPSMIEQQSGDIINISSTAGQKGAPVTSAYSASKFGVLGLTESLAMEVRKHNIRVTALTPSTVATDMAVDLGLTDGNPDKVMQAEDIAEFIVAQLKLNKRTFIKSAGLWSTNP"
recorded_value = "failed"

[[record]]
sequence = "METWITSIMADFGYIGIFLLIMIENLFPPIPSEIILTFGGFMTTVSSLNVVMVIIVATLGSVVGAILLYKVASYFGKERLTHIVLKYGRVLRLKESDIERAESFFLKYGSWAVFLCRMIPLIRSLISIPAGMTKMKMSRFLILTTAGSLLWNTVLIGLGALLGESWGEIVVFMDSFSTVIYSIIAVITLLGLGFFFRARFKKTLDEE"
recorded_value = "failed"

[[record]]
sequence = "MSIRNPNSTLLYRAHSRPPVKLCAPPRSLLPSRRHFSAPRAVVSYPGIRFGFTSPEVLLNRSVVAFAASHEDSGESGVEVGKEKSDIDVEDDTSKEAWKQTLESFKEQVSKMQSVSSEAYSVNSQKAMTVLKETSEQLRIQAEKAKEELGTKAKVVSEEGREYILKAAEESPSDVKEIVEAFASTEDLKNVSRANDFHVGIPYGLLLLVGGFINFMVSGSIPAIRFGVILGGALFALSLASLKSHRKGESSTKFLKGQMAIVAIIFLRELRLLLSQKSTFLGFFTTLTSGGVLGFYLYKMVVKREKGPTLEDGGEDESSDGFVRSEG"
recorded_value = "failed"

[[record]]
sequence = "MSIYNSIGKQYSQTRVPDIRIVNAIINLLNLPKGSVIADIGAGTGGYSVALANQGLFVYAVEPSIVMRQQAVVHPQVEWFTGYAENLALPDKSVDGVISILAIHHFSHLEKSFQEMQRIIRDGTIVLLTFDIRLAQRIWLYDYFPFLWEDALRFLPLDEQINLLQENTKRRVEAIPFLLPHDLSDLFAAAAWRRPELYLKAEVRAGISSFALANQDLVEKGLELLTADLNNGEWIRKYGEIHHLQEIDIGYRFIYTTLDK"
recorded_value = "not failed"


Exercise: For the sequence shown here, `MILNTEEYPISIGNEIKYTKEVYDCLQLLRLRTILKEYEVNLILDVGANEGQFASVLRDIGYVGTIISFEPLSKEYRLLSQAASKDSNWYTYNLALGKQNKEQILHVSDKSTFSSFLLSNSLCEQRFGKESIGDKNEVVSVRRLDNFLVEVVKNIDKMRIYLKMDTQGYDLEVFSGAGTLLKNIVALQSEVSVVPIYHSMPDMLYSISLFQEAGFSLSGMYPVTYVKPTLQVIEFDCLMVKADTKIS` , give the reported protein production.
Solution: failed

Exercise: For the sequence shown here, `MAIEPSLISSLTWFAHVARHRSFTKAASEMGVTRAALSQHVKGLEKQLQVRLLNRTTRNMSLTEEGQRLLDTLHPSLSNIEQTLNSLNDLHIEPAGLIRISVSRTAARLLIEPHLGEFLSRYPKIRLELIMDDGLTNIVAEGMDAGIRLGVSLDEHMVAIPITPNLTNAIVGSPDYFKRYGKPETPNDLEHHNCLAYRFTSSGTLDHWSLTSPDVDKHTVIFEPKGNAVFNDDYSMLQAAMQGVGLIKHIDLWVLKYLEEGKLERVFVDWCKPFPGFYLYIPSRENMPKKIRVLMDFLIEKRAEL` , give the reported protein production.
Solution: failed

Exercise: For the sequence shown here, `PQEKLKLLAFTGTKGKTTAAYFAYHMLKESYKPAMFSTMNTTLDGKTFFKSQLTTPESLDLFAMMAECVTNGMTHLIMEVSSQAYLVDRVYGLTFDVGVFLNISPDHIGPIEHPTFEDYFYHKRLLMENSRAVVINSGMDHFSFLADQVADQEHVFYGPLSDNQITTSQAFSFEAKGQLAGHYDIQLIGHFNQENAMAAGLACLRLGASLADIQKGIAKTRVPGR` , give the reported protein production.
Solution: failed

Exercise: For the sequence shown here, `HALGAPVLRVEGLSQAGHFRNVSFEVRAGEVLGITGLLGSGVKELVECLFGLEQPDAGSVTIDGEVRRFANPGRAVQGRVALVPEDRRAHGVATDMSVRDNITIASLERYMTRGFVSRARENEAVDGFIRELSIKTPHRDQLVRNLSGGNQQKVALAKWLSCQSRVYVLDEPTVAVDVGAKVEIYTLLNRLAAEGAAILFLSSDLLEIAGFCDRALVVYRGTLNGEFAGETLDSDLLLAAASGARAQRKEA` , give the reported protein production.
Solution: failed

Exercise: For the sequence shown here, `MSSPGGGTRFALVAGTTETAGRAGISAAGADPELMSVTPAADAELVTYGTPVRTDVTPVSPSGCPTPALVTRAAREVLGFDVTVVDGGLAEKTGAPTVSVGARPGKDIAEQDPVSTAHGAFAAARQFGQSLPADELYLGETIPGGTTTALGVLRALGEDGMVSSSLPENPTAQKSEVVAEGLQASSLEPGDAANEPKRAVRRMGDPVLATLAGLTAGAVESDTAVTLAGGSQCVAVAALVRHGGYEGPLGLATTSYVADDESADVRASVDRLDLDLTVTDPGFDRSDHVAMERFVAGEAKEGVGMGGALALAD` , give the reported protein production.
Solution: not failed

Exercise: For the sequence shown here, `MSEKMRRIVEAAGGIVWRWKAGSDIANDPAIASSKSAQEQLDSIEVCIVHRPKYDDWSWPKGKLEQNETHRHAAVREIGEETGSPVKLGPYLCEVEYPLSEEGKKTRHSHDCTADTKHTLYWMAQPISADDAEHLLDAFGPVHRADVGEINDIVWVSVREARKILSHSTDKDTLAVFVDRVQEGAATAQNLLIVRHAKAESRKSWKGTDANRPITPKGAAMAFALNRELACFNPTRLATSPWLRCQETLQVLSWQTERPMEHINTLTEDAFAEHPAVSWLAFREQITQTLNSRETTAICMHRPVIGGMYDHLRGLCARKQLAKQLIAKSPYMPTGTAMSLFIIDTPQGPSIIDIQKVSPIVY` , give the reported protein production.
Solution: failed

Exercise: For the sequence shown here, `MDLLSLLDINNTLVNIPIGGGYAMSWVEGFGTIFGLLCIWFASQEKTINYVFGLLNVTLFAVIFFQIQLYGLLLLQLFFFCANIYGWYAWTKPNSSGETLEVRWLSQSKLLAISGGSIAAIALLTIYIDPFFFSLATIAVDGMNLFGAELAEPVLAPDAFPFWDSTMTVLSIVAQILMTRKYVENWMLWIVINIISIGIYATQGVFAMSVQYSILMFIAANGAREWARTAKENINNKQVEKAIA` , give the reported protein production.
Solution: failed
